- System: 415267-285-R-J2-PDC complex spheroid viability;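 also: luminescence used as stand-in measure of viable cells; spheroids exposed to compounds for one week before readout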
- assayInfo: Anticancer human tumor 415267-285-R-J2-PDC patient-derived breast carcinoma cell line growth inhibition [POLQ]
- testParameters: second compound 1 µM; first compound 0.316 µM; active compounds read low
hey, just use fulfilled if measured viability, T/C is less than 90%, otherwise not fulfilled

molecule	assignedClass
CC1COCCN1c1cc(C2(S(C)(=N)=O)CC2)nc(-c2ccnc3[nH]ccc23)n1 (stereo not given) + COC1C(OC(N)=O)C(O)C(Oc2ccc3c(O)c(NC(=O)c4ccc(O)c(CC=C(C)C)c4)c(=O)oc3c2C)OC1(C)C	fulfilled
COc1ccc([C@@H](O)c2cc(-c3ncnc4cc(N5CCOCC5)ccc34)c(F)cc2Cl)nn1 + COC1C(OC(N)=O)C(O)C(Oc2ccc3c(O)c(NC(=O)c4ccc(O)c(CC=C(C)C)c4)c(=O)oc3c2C)OC1(C)C	not fulfilled
CCCS(=O)(=O)Nc1ccc(F)c(C(=O)c2c[nH]c3ncc(-c4ccc(Cl)cc4)cc23)c1F + COC1C(OC(N)=O)C(O)C(Oc2ccc3c(O)c(NC(=O)c4ccc(O)c(CC=C(C)C)c4)c(=O)oc3c2C)OC1(C)C	not fulfilled
CCc1cc2c(N3CCc4c(cc(Cn5ccnc5)cc4-c4cn(C)nc4C(F)(F)F)C3=O)cc(C)nc2c(OC)n1 + Cc1cccc(N(C)C(=O)C2C(O)CCN2c2nc(C)cc(C(F)(F)F)c2C#N)c1	fulfilled

Numbers sourced from PubChem BioAssay AID1963847.
